protocol_text: chemical genetic growth profiling, strain panel (AID 1159580);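 note: tested at 20 µM; growth read once vehicle control cultures reached saturation at 30 °C; 1 = growth at the plate median or of vehicle wells; lower values mean less growth of the strain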
particulars: S. cerevisiae deletion strains, growth OD, locus YLR221C, strain rsa3, active compounds read low
About 2,000 (36%) of roughly 5,500 compounds were called active. Another 18% or so got no clear call; they are omitted. The list shows a part of the results.
Measured normalized growth values are reported for all entries that follow.

Noted for CC1(C)Oc2ccc3ccc(=O)oc3c2CC1O (stereo not drawn) : its normalized growth reads 0.994 (inactive)

Noted for COC(=O)NC(=S)Nc1ccccc1NC(=S)NC(=O)OC : its normalized growth reads 0.974 (inactive)

Now for the compound whose normalized growth we want.
Noted for C[C@@H]1CC[C@@]23CCC4(C)[C@@](C=CC5[C@@]6(C)CC[C@H](O)C(C)(C)C6CC[C@]54C)(OC2=O)C3[C@H]1C (stereo partly drawn) : its normalized growth reads 0.998 (inactive)

----------
protocol_text: chemical genetic growth profiling, strain panel (AID 1159580);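 note: tested at 20 µM; growth read once vehicle control cultures reached saturation at 30 °C; 1 = growth at the plate median or of vehicle wells; lower values mean less growth of the strain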
particulars: S. cerevisiae deletion strains, growth OD, locus YBR229C, strain ROT2, active compounds read low
The campaign covered roughly 5,500 compounds. About 2,000 (36%) were called active. Roughly 18% stayed inconclusive and do not appear here. This is one part of the list.
readout: normalized growth
Just the number, please, no unit after it.

Recorded results for 5 compounds are shown here.
Noted for COc1ccccc1NC(=S)NCCC(=O)O : its normalized growth reads 1

Noted for NNC(=O)c1cccnc1Oc1ccccc1 : its normalized growth reads 0.998

Noted for COP(N)(=O)SC (stereo unspecified) : its normalized growth reads 0.978

Noted for NC[C@H]1O[C@H](OC2[C@@H](N)C[C@@H](N)[C@H](O[C@H]3O[C@H](CO)[C@@H](O)[C@H](N)[C@H]3O)[C@H]2O)[C@H](O)[C@@H](O)[C@@H]1O (stereo partly specified) : its normalized growth reads 0.988

Noted for NCC(O)CC(=O)O (stereo unspecified) : its normalized growth reads 1.01

***
Noted for CC[C@@]1(O)C(=O)OCc2c1cc1n(c2=O)Cc2cc3ccccc3nc2-1 : its normalized growth reads 0.982

Noted for Clc1ccc2ocnc2c1 : its normalized growth reads 1.01

Noted for CC1(C)S[C@@H]2C(N3C(=O)[C@@H](c4ccccc4)NC3(C)C)C(=O)N2[C@H]1C(=O)O (stereo partly specified) : its normalized growth reads 1.01

Noted for O=C(O)c1oc(C(=O)O)c(OCc2ccccc2)c1OCc1ccccc1 : its normalized growth reads 1.02

Noted for CCCCCCCCCCCCSc1nnc(N)s1 : its normalized growth reads 0.994

Noted for N#CCS(=O)(=O)c1cccs1 : its normalized growth reads 1

----------
Measured normalized growth values are reported for all entries that follow.
protocol_text: chemical genetic growth profiling, strain panel (AID 1159580);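 note: tested at 20 µM; growth read once vehicle control cultures reached saturation at 30 °C; 1 = growth at the plate median or of vehicle wells; lower values mean less growth of the strain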
particulars: S. cerevisiae deletion strains, growth OD, locus YDR150W, strain NUM1, active compounds read low
Out of some 5,500 compounds screened, about 2,000 (36%) were called active. Roughly 18% stayed inconclusive and do not appear here. The list shows a part of the results.
Just the number, please, no unit after it.

Recorded results for 5 molecules are shown here.
Noted for CCC(=O)OCC(=O)C1(OC(=O)CC)C(C)CC2C3CCC4=CC(=O)C=CC4(C)C3(Cl)C(O)CC21C (configuration not stated) : its normalized growth reads 1.01

Noted for CCC(=O)O[C@]1(C(=O)CCl)[C@@H](C)CC2C3CCC4=CC(=O)C=C[C@]4(C)[C@@]3(F)[C@@H](O)C[C@@]21C (some centres not stated) : its normalized growth reads 0.975

Noted for Cc1nc(N=Nc2cc(S(=O)(=O)O)c3cc([N+](=O)[O-])cc(S(=O)(=O)O)c3c2)c(COP(=O)(O)O)c(C=O)c1O : its normalized growth reads 0.995

Noted for Nc1nc(/C(=C/CC(=O)O)C(=O)N[C@@H]2C(=O)N3C(C(=O)O)=CCS[C@H]23)cs1 : its normalized growth reads 0.998

Noted for CSc1cc(C(F)(F)F)cc(SC)c1SC : its normalized growth reads 1.01

***
Noted for CC(=O)[C@@]1(O)CCC2C3C=C(Cl)C4=CC(=O)[C@@H]5CC5[C@]4(C)C3CC[C@@]21C (some centres not stated) : its normalized growth reads 1.02

Noted for CCCN(CC1CC1)c1nc(C)nc(Nc2c(Cl)cc(Cl)cc2Cl)c1Cl : its normalized growth reads 1.01

Noted for CCC(=O)OCC(=O)[C@@]1(OC(=O)CC)[C@@H](C)CC2C3CCC4=CC(=O)C=C[C@]4(C)C3(F)[C@@H](O)C[C@@]21C (some centres not stated) : its normalized growth reads 0.974

Noted for CC(=O)OCC(=O)[C@@]1(O)CCC2C3C[C@H](C)C4=CC(=O)C=CC4(C)C3[C@@H](O)CC21C (some centres not stated) : its normalized growth reads 1.01

Noted for Oc1ccc2c3c1OC1[C@@H](O)CC[C@@]4(O)[C@@H](C2)N(CC2CCC2)CC[C@]314 (some centres not stated) : its normalized growth reads 1.02

Noted for NCCS(=O)O : its normalized growth reads 1

Noted for CC(C)(C)NCC(O)COc1cccc2c1C[C@H](O)[C@H](O)C2 (some centres not stated) : its normalized growth reads 0.992
